Field: soluble fraction (log2). Provide a value for each of the sequences that follow.
# test: soluble fraction after stress (log2 fold change); higher = more stays soluble; pooled small domains, quantitative proteomics
# measurementConditions: stress: pH 4
Answers are plain numbers.

Please review the entries below; each comes with its answer.
| sequenceText | soluble fraction (log2) |
| --- | --- |
| HMSEPQYKVLFSNLDDRDGGAIVTALGAMNVPYKYNDTGTALLVPADRVYDARLQLASQGLPRG | 0.172 |
| HMEGFSAGQFVRASVDNTAFYLKRPKGDAVADKLLRRGASMKVISASGDYLKVELDSGEVGFVPPVMVE | 0.0892 |
| HMKGIVFTEFLDLVEERFGLEMVDAIISQSKLESKGVYTSIGTYSFSELLQLLQNLKIQTGISIDNLLLI | -1.51 |
| HMDPTIAAIRKKLKNWTIVEVHMTREELEQAVIDGKVDVFLSSAGFYRRLVRFGARDLATAMSPAYPD | -0.151 |
| HMGVAAEDPDEAEKGAHSLKSSAANVGAEVVRGLAGEIESAASSGDVEAVRTILPGLEDAYSQAITDLET | 0.133 |

Would you mind listing soluble fraction (log2) for each of the following sequences?
1. HMGTVSSGSSSTDTPFSLGEIVRHKVFGEGVVLSIEGQGDASRIQINFNTAGTKWLVTAYADLEK
2. HMNNPLLDKVYQLMKQNNITEEEIVRAVAMKGYFPDDMKLGDYPDDFIDGVLIGAWDQIKQFIINNISPFK
3. HMLKDQSIAQLEKNLDDLKGLMRKMFGSSDVPKITKMISDIESSLANFNQSKANKLIVQTTNYISSKL

Resp:
1: -1.28; 2: -0.359; 3: -0.0978

* * *

# test: soluble fraction after stress (log2 fold change); higher = more stays soluble; pooled small domains, quantitative proteomics
# measurementConditions: stress: pH 4
For each of the sequences below, state its soluble fraction (log2).
Give bare numbers.

| sequenceText | endpoint | assayValue |
| --- | --- | --- |
| HMGSVDMVYGDHKINSEHMDLSFKNQTAVLYDKVNYKSSLSMLSADKILVNFLNKYTKIEMNDENNNILIQ | soluble fraction (log2) | -0.128 |
| HMSFDGFSDRLKSVLNSGKYTQKEAAEKINISEYSFTKYLNGRIPQTEILYKIARLYNKSMEWLLTGKDPI | soluble fraction (log2) | -0.158 |
| HMTSTSVKYVNSSSGLNVRKGPSTSYDKVTTLVNGTKVTVISTNNGWSKITSGSITGYVSSQYLSSSS | soluble fraction (log2) | -0.284 |
| HMHAPRIEVVQIDPEKIGALIGPGGKNIRRITEVTGANLDIDEDNSGKIRVYASDSEAMNRALQEIDLVT | soluble fraction (log2) | -0.18 |

# context switch: different sequence, same soluble fraction (log2)
Req: Please list soluble fraction (log2) recorded for the sequence HMKRNLVSVLDHIVGIGPKRRQSLRTHFGSLEKIKEASVEELAAAPGMNRTSAEAVRHFFDAQQELRGK
Resp: 0.207

* * *

# test: soluble fraction after stress (log2 fold change); higher = more stays soluble; pooled small domains, quantitative proteomics
# measurementConditions: stress: pH 4
Exercise: state measured soluble fraction (log2) for each of the sequences provided.
Numbers only.

| sequenceText | soluble fraction (log2) |
| --- | --- |
| HMHRIKRRNDTLVSALDSIAGIGAKRKKALLQHFGSVRAIKAVSAEEIAKVEGISPTLANQIFEAL | -0.0221 |

Hi there! I need soluble fraction (log2) for each item below, if you can.
1. HMKGTVKFFNESKGFGFITEEGTNKEHFVHVSGLVDEIRENDEVEFDLQDGRKGLNAVNVRV
2. HMAKNDSGLNNHTFNTIRDALQKALTDGPQEAKKLTENLPFPADKIITVIRYLADHDEHFSLEDGIISLT
3. HMAEPYDERKVMEQMIPKGKNTIVAHLGHLKDHGETGYLQEALSYLRERESELGFDLKEVRALVHN
4. HMGSWEDALKNWVDSALASGQKGILEQAVPKFERIMIETALTHTAGRRRDASLLLGWGRNTLTRKIKELGI

Resp:
[0.0618, -0.0785, -0.223, 0.0465]

For each of the sequences below, state soluble fraction (log2).
1. HMEFYYSDLVGMIVYDTGGNELGKVQAVLNHGAGDLLEIHGVNLKTSILIPFTKEAVPTVDIAARRIVTDP
2. HMSTMKSKWFVSSNPIAGVMKYQAQRKKDVNAVDSSENREASGQWYTDKEEAQAIVDKLNAEEQIKEAGK
3. HMSHSVLIDISQLRIGMYIQLDVGWMHHPFPVSSFRVASLEQIEALRTLNLAQVRYFPAKSDPV
4. HMQQVIQSGQKVQLMATDGSFQVSAEGVALKNGSVGEVIGVRMPSGRVISGVVSASGAVEVR
5. HMGKKQLVVDLQSIITDVPAALKSYGLEIGQDGKSLIYTYDTKGERTGITTLLNDLQKAGLQMTDMKTQQ
6. HMVVKLTQEQDRFIKTFNDKSLAFYYISSWGWGSFLRNGIGGVYEGDKTPFTLDEKEKMLNAIINGYEVI
7. HMSLYGGYEIDIIKEEVVDAGIKLLRRRVIVADQRGISVYEGKPTFASDDQVLIKEGQYQIDKLG
8. HMGRRRAAPQEPLRQFPASPVTGQPIKLLLGQYGPYVTDGTTNASLPKGSSPDELTFEQATQLLAERALRG

Resp:
[0.00543, 0.0846, -1.11, 0.0769, -0.0755, -1.36, -1.46, 0.0322]

Req: Complete the entry with soluble fraction (log2) for HMVGAEDISKPMNLGALMRTAHAFGASFFFTINAHPKVRHAYNSDTSRSFDHMPYYPWDTMEE
Resp: -0.287
